Property: Kd; scope: individual binders
- Target entity: C-terminal peptide of cystic fibrosis transmembrane conductance regulator (CFTR), F-Ahx-VQDTLR
- Protocol text: fluorescence polarisation
Recorded endpoint: Kd (µM)

>  <Binder>
NHERF1 PDZ1 domain K32A/K34A (domain or fragment) LPRLCCLEKGPNGYGFHLHGEAGALGQYIRLVEPGSPAEKAGLLAGDRLVEVNGENVEKETHQQVVSRIRAALNAVRLLVVDPETDEQL

>  <Reading unit>
µM

>  <Numeric value>
13

$$$$
>  <Binder>
NHERF1 PDZ1 domain Y38A/R40A (domain or fragment) LPRLCCLEKGPNGYGFHLHGEKGKLGQAIALVEPGSPAEKAGLLAGDRLVEVNGENVEKETHQQVVSRIRAALNAVRLLVVDPETDEQL

>  <Reading unit>
µM

>  <Numeric value>
14

$$$$
>  <Binder>
NHERF1 PDZ1 domain (N-terminal PDZ domain of NHERF1/EBP50), wild type (domain or fragment) LPRLCCLEKGPNGYGFHLHGEKGKLGQYIRLVEPGSPAEKAGLLAGDRLVEVNGENVEKETHQQVVSRIRAALNAVRLLVVDPETDEQL

>  <Reading unit>
µM

>  <Numeric value>
13

$$$$
